Experiment: protein stability index of a GFP-peptide fusion (yeast GPS) (PSI 1-4); higher = more stable; sorted into four equal gates, so the index is relative within each strain
Settings: doa10∆
Each item that follows carries a reported protein stability index.
MEASURED ATTRIBUTE: protein stability index

In [3]: df
Out[3]:
                      item_sequence       measured_attribute  result
0  EAKDAIIELENINAKME [YIL149C/MLP2]  protein stability index    3.06
1          YMLIEEAASSNKSFIVD [ITC1]  protein stability index    2.96
2          DANRNANNIVNIVSDAG [GRR1]  protein stability index    3.07
3          EDMIDQVSKKLSSIEAS [SMC3]  protein stability index    3.07
4        AVHVTVRGPKAEEILER [RPL11A]  protein stability index    2.99
5          SGKARICIVGGYDDFQE [FAS2]  protein stability index    2.91
6        TIAKQVLNGQKIVVVRA [RPL16B]  protein stability index    3.04
7          RNFDTHENYIQDDDFPL [MCD1]  protein stability index    2.92

----------
Each item that follows carries a reported protein stability index.
Assay: protein stability index of a GFP-peptide fusion (yeast GPS) (PSI 1-4); higher = more stable; sorted into four equal gates, so the index is relative within each strain
Conditions: san1∆
MEASURED ATTRIBUTE: protein stability index

In [3]: df
Out[3]:
                      item_sequence       measured_attribute  numeric_value
0         AEKELEAEIECFDSTTG [RRP40]  protein stability index           3.05
1          KDKTKNISAEIIRHEKE [SMC4]  protein stability index           2.99
2  ARHKKKVENLDYMYENG [YML031W/NDC1]  protein stability index           3.08

----------
Assay: protein stability index of a GFP-peptide fusion (yeast GPS) (PSI 1-4); higher = more stable; sorted into four equal gates, so the index is relative within each strain
Conditions: san1∆
Label TRUE when protein stability index is at or above 3; anything below gets FALSE.

In [3]: df
Out[3]:
                       item_sequence  qualitative_label
0          IPGMSNMMNQVGEEETS [SRP54]              FALSE
1           SYSGYDIEDALVLNKSS [RET1]              FALSE
2           FDLVRNIVKQNEGIDLD [SMC2]               TRUE
3  LLISLNILFSLWKLLST [YLR018C/POM34]              FALSE
4           RTVAGFSNVELPQCIIP [ARP7]              FALSE
5           KTITSGLKYALATGNWG [RPB2]              FALSE
6          ALRLSMEEEQQRQERLR [RPN10]               TRUE

----------
Each item that follows carries a reported protein stability index.
Assay: protein stability index of a GFP-peptide fusion (yeast GPS) (PSI 1-4); higher = more stable; sorted into four equal gates, so the index is relative within each strain
Details: ubr1∆
MEASURED ATTRIBUTE: protein stability index

               item_sequence  numeric_value
0   NGILPDDELMNWRRLSG [SSN2]           3.19
1   FEKKELQEKFLNQIATL [IRR1]           1.04
2   NNETEQLKAEEKKILNQ [SMC1]           3.01
3  AKTFIDLESSSPELKAD [RPS7B]           3.17
4   MCVSKGNASLKYIALQV [YCG1]            2.6
